The origin of these recorded values is PubChem BioAssay (NCI).

# method.summary: NCI Yeast Anticancer Drug Screen. Data for the cln2 rad14 strain (AID 165);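 note: 0% = growth equal to vehicle treated cultures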
# study.conditions: S. cerevisiae cln2 rad14 strain, at 5.0 µM (retest, dose inferred, filed as 0.5), stronger effect = higher value
The panel holds about 79,000 compounds, 15% with a hit somewhere; the sample as a whole holds those more often.
observed.property: growth inhibition (%)
Quick reminder: number only, in %, skip the unit.

Cc1c(Cl)c(C)c(Cl)c(O)c1Cl	32
O=[N+]([O-])c1ccc2nc(=S)[nH]n2c1	-59
OC1(C#CI)CCCCC1	-28
CCOC(=O)/C(=C/c1cccc(Cl)c1)N(CC)CC	43
O=[N+]([O-])c1cccc2nc3ccccc3c(NCCCN3CCCCC3)c12	99
CC(C)OC(=O)NNc1c(Cl)cc(Cl)cc1Cl	14

Now turn to the next compound.
Documented growth inhibition of O=C(C(Cl)=C(N1CCCCC1)N1CCCCC1)C(Cl)Cl : 7

====

# method.summary: NCI Yeast Anticancer Drug Screen. Data for the rad52 strain (AID 147);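 note: 0% = growth of vehicle-treated control cultures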
# study.conditions: S. cerevisiae rad52 mutant growth inhibition; at 1.2 µM
Compounds without any hit were thinned out: in the full panel of roughly 79,000, 15% have a hit. Calls of active or inactive are those of the source. No stated cut-off is given here; in the data, active means growth inhibition above about 70%; inactive means the rest.
In this exercise, the only acceptable responses are active, inactive

# count of solved cases: 2
CCCCCCCCCC(=O)N(CCC)CCC	inactive
[N-]=[N+]=NC1(c2ccccc2)C(=O)Nc2ccccc2C1=O (stereo not drawn)	inactive

Request: Which outcome did this test record for the compound CC(C)NCCCNc1c2ccccc2nc2cccc([N+](=O)[O-])c12 ?
Result: active

====

# method.summary: NCI Yeast Anticancer Drug Screen. Data for the mgt1 strain (AID 153)
# study.conditions: S. cerevisiae mgt1 mutant growth inhibition; at 11.0 µM
Compounds without any hit were thinned out: in the full panel of roughly 79,000, 15% have a hit. The source made the active and inactive calls. No stated cut-off is given here; in the data, active means growth inhibition above about 70%; inactive means the rest.
In this exercise, the only acceptable responses are 1.0 for active, 0.0 for inactive

# count of solved cases: 5
COC(=O)C(=O)CC(=O)c1cccc(OC)c1	0.0
O=C(O)C1CCCCC1c1c2ccc(=O)cc-2oc2cc(O)ccc12 (centres undefined)	0.0
C[N+](C)([O-])CCCNc1c2ccccc2nc2cccc([N+](=O)[O-])c12	0.0
Fc1ccc(Nc2ccc3ccccc3c2)cc1	0.0
CCCCCc1c(CCCC)c(=O)[nH]c2cc(CNCC(OC)OC)ccc12	0.0

Request: Which outcome did this test record for the compound COc1ccc2cc3c4cc5c(cc4cc[n+]3cc2c1OC)OCO5 ?
Result: 0.0

Request: Which outcome did this test record for the compound OC(CC(O)(C(F)(F)F)C(F)(F)F)c1ccc(C(O)CC(O)(C(F)(F)F)C(F)(F)F)cc1 (centres undefined) ?
Result: 1.0

====

# method.summary: NCI Yeast Anticancer Drug Screen. Data for the mgt1 strain (AID 153)
# study.conditions: S. cerevisiae mgt1 mutant growth inhibition; at 1.2 µM; stronger effect = higher value
This is part of a sample that, as a whole, favours compounds with a hit. Of some 79,000 tested, about 15% had one in any assay.
Here the recorded growth inhibition is given for each entry.
Quick reminder: number only, in %, skip the unit.

CCN1CCC(O)(c2ccc(Oc3ccc(Cl)cc3)cc2)C(C(=O)c2ccc(Oc3ccc(Cl)cc3)cc2)C1 (stereo not drawn)	30

Documented growth inhibition of CCOc1ccc(N)c(S)c1 : 0

Documented growth inhibition of CCCC/C=C1\CCC(CN2CCCC2)C1=O (stereo not drawn) : 21

Documented growth inhibition of N#CC1OB(O)c2ccccc21 (stereo not drawn) : -7

Documented growth inhibition of OB(O)c1ccccc1C#Cc1ccccc1 : 1

Documented growth inhibition of O=[N+]([O-])[O][Sn]([O][Sn]([O][N+](=O)[O-])([c]1ccccc1)[c]1ccccc1)([c]1ccccc1)[c]1ccccc1 : 8

Documented growth inhibition of CCOP(=O)(OCC)/C(C#N)=C/c1cccc(Oc2ccccc2)c1 : -32
